SYSTEM: T1, Recombinant human OX40-His protein (human, UniProt P43489 29-214, limits assumed)
T1 construct: Recombinant antigen protein; also called recombinant human OX-40 protein; human OX-40 protein; not shown: His tag
T1 sequence (looked up): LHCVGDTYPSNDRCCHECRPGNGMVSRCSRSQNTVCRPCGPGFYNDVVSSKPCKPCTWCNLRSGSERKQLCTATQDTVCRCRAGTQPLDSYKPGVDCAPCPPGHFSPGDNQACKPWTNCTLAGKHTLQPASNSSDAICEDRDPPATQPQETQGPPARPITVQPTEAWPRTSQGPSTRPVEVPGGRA
METHOD DESCRIPTION: kinetic ranking (RU, 1:1 binding model), prokaryotically expressed antibody product as ligand, OX40-His as analyte
Parameter threshold = 300000 M⁻¹ s⁻¹. Response is 1 when kon meets or exceeds it, else 0.

Below, 8 binders whose answers are already recorded.
1) AH02922, prokaryotically expressed antibody product (back-mutation screening) (Fab, V domains shown) VH: QVQLVQSGAEVKKPGASVKISCKASGYTFTDYSMHWVRQAPGQRLEWMGWISTETGEPTYADDFKGRVTITRDTSASTAYMELSSLRSEDTAVYYCARVRPWYLVVWGQGTLVTVSS VL: DIQMTQSPSSLSASVGDRVTITCRASQDISNYLNWYQQKPGKAPKLLIYYTSRLYSGVPSRFSGSGSGTDYTLTISSLQPEDIATYYCQQANTLPLTFGGGTKLEIK; 0
2) AH02915, prokaryotically expressed antibody product (back-mutation screening) (Fab, V domains shown) VH: QVQLVQSGAEVKKPGASVKVSCKASGYTFTDYSMHWVKQAPGQGLEWMGWISTETGEPTYADDFKGRVTITLDTSASTAYLEISSLRSEDTAVYYCARVRPWYLAVWGQGTLVTVSS VL: DIQMTQSPSSLSASVGDRVTITCRASQDISNYLNWYQQKPGKAPKLLIYYTSRLYSGVPSRFSGSGSGTDFTLTISSLQPEDIATYFCQQANTLPLTFGGGTKLEIK; 0
3) AH02916, prokaryotically expressed antibody product (back-mutation screening) (Fab, V domains shown) VH: QVQLVQSGAEVKKPGASVKVSCKASGYTFTDYSMHWVKQAPGQGLEWMGWISTETGEPTYADDFKGRVTITLDTSASTAYMELSSLRSEDTAVYYCARVRPWYLAVWGQGTLVTVSS VL: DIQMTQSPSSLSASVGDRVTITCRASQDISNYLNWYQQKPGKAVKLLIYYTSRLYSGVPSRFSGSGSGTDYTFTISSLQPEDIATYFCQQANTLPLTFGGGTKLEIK; 0
4) AH02917, prokaryotically expressed antibody product (back-mutation screening) (Fab, V domains shown) VH: QVQLVQSGAEVKKPGASVKVSCKASGYTFTDYSMHWVKQAPGQGLEWMGWISTETGEPTYADDFKGRFTITLDTSASTAYMELSSLRSEDTAVYFCARVRPWYLAVWGQGTLVTVSS VL: DIQMTQSPSSLSASVGDRVTITCRASQDISNYLNWYQQKPGKAVKLLIYYTSRLYSGVPSRFSGSGSGTDFTLTISSLQPEDIATYYCQQANTLPLTFGGGTKLEIK; 0
5) AH02919, prokaryotically expressed antibody product (back-mutation screening) (Fab, V domains shown) VH: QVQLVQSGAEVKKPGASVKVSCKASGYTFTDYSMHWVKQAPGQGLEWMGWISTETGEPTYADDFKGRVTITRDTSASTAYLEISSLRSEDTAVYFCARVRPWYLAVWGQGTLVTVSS VL: DIQMTQSPSSLSASVGDRVTITCRASQDISNYLNWYQQKPGKAVKLLIYYTSRLYSGVPSRFSGSGSGTDYTLTISSLQPEDIATYYCQQANTLPLTFGGGTKLEIK; 1
6) AH02906, prokaryotically expressed antibody product (back-mutation screening) (Fab, V domains shown) VH: QVQLVQSGAEVKKPGASVKVSCKASGYTFTDYSMHWVKQAPGQGLEWMGWISTETGEPTYADDFKGRFTITLDTSASTAYMELSSLRSEDTAVYYCARVRPWYLAVWGQGTLVTVSS VL: DIQMTQSPSSLSASVGDRVTITCRASQDISNYLNWYQQKPGKAPKLLIYYTSRLYSGVPSRFSGSGSGTDYTLTISSLQPEDIATYFCQQANTLPLTFGGGTKLEIK; 1
7) AH02923, prokaryotically expressed antibody product (back-mutation screening) (Fab, V domains shown) VH: QVQLVQSGAEVKKPGASVKVSCKASGYTFTDYSMHWVRQAPGQGLEWMGWISTETGEPTYADDFKGRFTFTLDTSASTAYLELSSLRSEDTAVYYCARVRPWYLAVWGQGTLVTVSS VL: DIQMTQSPSSLSASVGDRVTITCRASQDISNYLNWYQQKPGKAVKLLIYYTSRLYSGVPSRFSGSGSGTDYTFTISSLQPEDIATYYCQQANTLPLTFGGGTKLEIK; 1
8) AH02913, prokaryotically expressed antibody product (back-mutation screening) (Fab, V domains shown) VH: QVQLVQSGPEVKKPGASVKVSCKASGYTFTDYSMHWVKQAPGQGLEWMGWISTETGEPTYADDFKGRVTITLDTSASTAYMELSSLRSEDTAVYFCARVRPWYLAVWGQGTLVTVSS VL: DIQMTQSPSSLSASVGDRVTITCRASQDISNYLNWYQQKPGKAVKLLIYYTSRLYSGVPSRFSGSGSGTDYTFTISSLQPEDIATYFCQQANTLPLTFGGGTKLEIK; 1

Does the binder AH02921, prokaryotically expressed antibody product (back-mutation screening) (Fab, V domains shown) VH: QVQLVQSGPEVKKPGASVKVSCKASGYTFTDYSMHWVRQAPGQGLEWMGWISTETGEPTYADDFKGRFTITLDTSASTAYLEISSLRSEDTAVYFCARVRPWYLTVWGQGTLVTVSS VL: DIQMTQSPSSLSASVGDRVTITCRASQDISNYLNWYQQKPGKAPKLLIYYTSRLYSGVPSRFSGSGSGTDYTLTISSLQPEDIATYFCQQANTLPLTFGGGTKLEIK have recorded kon that is 300000 M⁻¹ s⁻¹ or more?
1
